Test system: A. baumannii chromosomal class C
PROCEDURE_DETAILS: CLSI broth dilution MIC determination
Assay type: cell-based
TEST_PARAMETERS: Acinetobacter baumannii, read-out: MIC
// reported MIC per item
MEASURE_NAME: MIC (µg/mL)

INSERT INTO assay_data (compound, measure_name, modifier_sign, measured) VALUES
  ('CC[C@H]1OC(=O)[C@H](C)[C@@H](O[C@H]2C[C@@](C)(OC)[C@@H](O)[C@H](C)O2)[C@H](C)[C@@H](O[C@@H]2O[C@H](C)C[C@H](N(C)C)[C@H]2O)[C@](C)(O)C[C@@H](C)CN(C)[C@H](C)[C@@H](O)[C@]1(C)O [Azithro, azithromycin, reference compound]', 'MIC', '=', 32),
  ('CC[C@H]1OC(=O)[C@H](C)C(=O)[C@H](C)[C@@H](O[C@@H]2OC(C)CC(N(C)C)C2O)[C@](C)(OC)C[C@@H](C)C(=O)C[C@H]2N(CCCCn3cc(-c4cccc(N)c4)nn3)C(=O)O[C@]12C (some centres unmarked) [FSM-21535]', 'MIC', '>', 32);
